- Test system: HT-29;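 note: growth inhibition of human HT-29 cells, read out by a cell viability assay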
- assay-method-text: cells
- Assay type: functional, cell-based, Homo sapiens
- experimental-context: Homo sapiens, HT-29
- Description: SANGER: Inhibition of human HT-29 cell growth in a cell viability assay.
In this section we review reported IC50 values for a set of compounds.

Example cases with answers are listed next.
| compound | target-of-assay | result |
| --- | --- | --- |
| Nc1ccn([C@@H]2O[C@H](CO)[C@@H](O)[C@@H]2O)c(=O)n1 [CYTARABINE] | HT-29 | > 2 µM |
| COc1ccc(C2=N[C@@H](c3ccc(Cl)cc3)[C@@H](c3ccc(Cl)cc3)N2C(=O)N2CCNC(=O)C2)c(OC(C)C)c1 [NUTLIN-3] | HT-29 | > 8 µM |

Then this compound:
Query: Endpoint output: IC50 of Cn1cc(C2=C(c3ccc(Cl)cc3Cl)C(=O)NC2=O)c2ccccc21 [SB-216763] . Value?
Response: > 10 µM

###

In this section we review reported IC50 values for a set of compounds.
- System: AM-38
- assay-method-text: cells
- Assay type: functional, cell-based, Homo sapiens
- experimental-context: Homo sapiens, AM-38
- Description: SANGER: Inhibition of human AM-38 cell growth in a cell viability assay.

Query: Endpoint output: IC50 of O=C(/C=C/c1ccccc1)NC(NC(=S)Nc1cccc2cccnc12)C(Cl)(Cl)Cl (stereo unspecified) [SALUBRINAL] . Value?
Response: > 16000 nM

Query: Cool, now CN(C)C/C=C/C(=O)Nc1cc2c(Nc3ccc(F)c(Cl)c3)ncnc2cc1O[C@H]1CCOC1 [AFATINIB]
Response: > 500 nM

Query: Cool, now C[C@]1(O)C[C@@H](c2nc(-c3ccc4ccc(-c5ccccc5)nc4c3)c3c(N)nccn32)C1 [LINSITINIB]
Response: > 2560 nM

Query: Cool, now CN1CCN(CCOc2cc(OC3CCOCC3)c3c(Nc4c(Cl)ccc5c4OCO5)ncnc3c2)CC1 [SARACATINIB]
Response: > 2000 nM

Query: Cool, now Cc1cnc(-c2cnc(NCCNc3ccc(C#N)cn3)nc2-c2ccc(Cl)cc2Cl)[nH]1 [LADUVIGLUSIB]
Response: > 2560 nM

###

In this section we review reported pIC50 values for a set of compounds.
- Test system: MKN-28;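 note: cell viability assay read-out, IC50 reflects suppression of growth of human MKN-28 cells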
- assay-method-text: cells
- Assay type: functional, cell-based, Homo sapiens
- experimental-context: Homo sapiens, MKN-28
- Description: SANGER: Inhibition of human MKN28 cell growth in a cell viability assay.
pIC50: −log10 of the molar value.

| compound | pIC50 |
| --- | --- |
| CC(=O)O[C@@H]1[C@@H](OC(C)=O)[C@@H](O)[C@H](Oc2c(-c3ccc(O)cc3)oc3cc(O)cc(O)c3c2=O)O[C@H]1C | < 5.00 |
| CN(Cc1cnc2nc(N)nc(N)c2n1)c1ccc(C(=O)N[C@@H](CCC(=O)O)C(=O)O)cc1 [METHOTREXATE] | < 6.70 |

Query: Endpoint output: pIC50 of COc1cc([C@@H]2c3cc4c(cc3[C@@H](O[C@@H]3O[C@@H]5CO[C@@H](C)O[C@H]5[C@H](O)[C@H]3O)[C@H]3COC(=O)[C@H]23)OCO4)cc(OC)c1O [ETOPOSIDE] . Value?
Response: 5.59

###

- Tested on: RL
- assay-method-text: cells
- Type: functional, cell-based
- experimental-context: Homo sapiens
- Description: SANGER: Inhibition of human RL cell growth in a cell viability assay.
assay-readout: IC50

Query: Endpoint output: IC50 of Cc1cc([C@@H](C)Nc2ccccc2C(=O)O)c2nc(N3CCOCC3)cc(=O)n2c1 . Value?
Response: > 5.12 µM
